Molecular target: CD3 (antigen of the binding affinity table of Example 1) (UniProt P07766)
Assay: kinetic fit with two-state parameters; method not given
Item-by-item account of koff
Provide a numeric answer, followed by its unit.

H4L1 (antibody, V domains shown) VH: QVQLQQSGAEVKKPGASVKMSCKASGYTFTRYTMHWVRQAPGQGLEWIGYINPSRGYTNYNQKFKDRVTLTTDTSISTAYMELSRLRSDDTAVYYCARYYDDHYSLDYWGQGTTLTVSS VL: DIQMTQSPSSLSASVGDRVTMTCSASSSVSYMNWYQQKPGKAPKRLIYDTSKLASGVPSRFSGSGSGTDFTLTISSLQPEDFATYYCQQWSSNPFTFGSGTKLEINR :: 0.176 s⁻¹

Challenge: Tell me the measured koff of H2L2 (antibody, V domains shown) VH: QVQLQQSGAEVAKPGASVKVSCKASGYTFTRYTMHWVRQAPGQGLEWMGYINPSRGYTNYNQKFKDRATLTRDKSISTAYMELSRLRSDDTAVYYCARYYDDHYSLDYWGQGTTLTVSS VL: DIQMTQSPSSLSASVGDRVTMTCSASSSVSYMNWYQQKPGKAPKLLIYDTSKLASGVPSRFSGSGSGTDFTLTISSMQPEDFATYYCQQWSSNPFTFGSGTKLEINR , please.
Response given: 0.0986 s⁻¹

Challenge: Form field: reported koff of H2L1 (antibody, V domains shown) VH: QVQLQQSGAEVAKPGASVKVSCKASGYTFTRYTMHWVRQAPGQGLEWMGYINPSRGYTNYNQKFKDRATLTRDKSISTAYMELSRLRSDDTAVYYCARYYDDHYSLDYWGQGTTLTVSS VL: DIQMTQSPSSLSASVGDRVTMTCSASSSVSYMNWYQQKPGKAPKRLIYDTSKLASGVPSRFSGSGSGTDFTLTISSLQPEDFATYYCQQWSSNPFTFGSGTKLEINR
Response given: 0.0979 s⁻¹

Challenge: Please report the recorded koff for H4L4 (antibody, V domains shown) VH: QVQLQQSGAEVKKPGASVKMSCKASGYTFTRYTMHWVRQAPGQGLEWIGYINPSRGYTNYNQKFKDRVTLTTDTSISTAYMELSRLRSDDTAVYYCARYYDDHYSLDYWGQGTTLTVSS VL: DIQLTQSPSSLSASVGDRVTITCSASSSVSYMNWYQQKPGKAPKLLIYDTSKLASGVPSRFSGSGSGTDFTLTISSMQPEDFATYYCQQWSSNPFTFGSGTKLEINR .
Response given: 0.248 s⁻¹
